What follows is a collection of Kd values obtained with LCK.
parameter: Kd (µM)

{"structure": "COc1cc2nccc(Nc3ccc(NC(=O)c4ccc(C)cc4)c(O)c3)c2cc1OC.Cl", "parameter": "Kd", "sign": "=", "measured_number": 0.56}
{"structure": "Cc1ccccc1-n1cnc2c(N)ncnc21", "parameter": "Kd", "sign": ">", "measured_number": 10}

---

System: PIP5K2B;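 note: KINOMEscan kinase panel screen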
Settings: concentration: 1 μM, replicates: in singlicate; n = 1
parameter: %Inh

{"compound": "COc1cc2nccc(Nc3ccc(NC(=O)c4ccc(C)cc4)c(O)c3)c2cc1OC.Cl", "parameter": "%Inh", "result": "0%"}
{"compound": "Cc1ccc(-c2cc(-c3c[nH]nc3-c3ccccn3)ccn2)cc1", "parameter": "%Inh", "result": "8%"}
{"compound": "COc1cc2ncn(-c3cc(OCC4CCCO4)c(C(N)=O)s3)c2cc1OC (stereo not shown)", "parameter": "%Inh", "result": "9%"}
{"compound": "Cc1cccc(-c2nc(Nc3cccc(C(N)=O)c3)c3ccccc3n2)n1", "parameter": "%Inh", "result": "0%"}
{"compound": "CC(C)(C)c1ccc(C(=O)Nc2cn3cc(-c4cccnc4)ccc3n2)cc1", "parameter": "%Inh", "result": "18%"}
{"compound": "Cc1ccc(NC(=O)Nc2cccc(Cl)c2)cc1-c1ccc(C(=O)Nc2ccncc2)cc1", "parameter": "%Inh", "result": "0%"}
{"compound": "Cn1ccc2ncnc(Oc3ccc(Nc4nc5ccccc5[nH]4)cc3)c21", "parameter": "%Inh", "result": "26%"}
{"compound": "CCn1c(-c2cccnc2O)nc2cnccc21", "parameter": "%Inh", "result": "0%"}
{"compound": "COc1cccc(NC(=O)NC2CCN(c3ccnc(Nc4ccc(F)cc4)n3)C2)c1 (stereo not shown)", "parameter": "%Inh", "result": "0%"}
{"compound": "Fc1cc(Cl)ccc1Nc1ccnc2cc(-c3ccc(CN4CCCCC4)o3)ccc12", "parameter": "%Inh", "result": "5%"}
{"compound": "Cl.c1ccc(-c2n[nH]cc2-c2ccnc(-c3ccc(CN4CCOCC4)cc3)c2)nc1", "parameter": "%Inh", "result": "30%"}
{"compound": "COc1ccccc1-c1ccc2c(NC(=O)C3CC3)n[nH]c2n1", "parameter": "%Inh", "result": "30%"}
{"compound": "Cl.Oc1ccc(-c2nc(-c3ccccc3)[nH]c2-c2ccncc2)cc1", "parameter": "%Inh", "result": "0%"}
{"compound": "Cc1cccc(-c2cc(Nc3ccncc3)c3ccccc3n2)n1", "parameter": "%Inh", "result": "4%"}
{"compound": "CC(=O)Nc1nc2cnc(Nc3cc(NC(=O)c4cccc(CCC#N)c4)ccc3C)nc2s1", "parameter": "%Inh", "result": "45%"}
{"compound": "Cc1c(O)cccc1Nc1ccnc2ccc(C(F)(F)F)cc12.Cl", "parameter": "%Inh", "result": "0%"}
{"compound": "Clc1cc(Cl)cc(Nc2ccnc(Nc3cc(Cl)cc(Cl)c3)n2)c1", "parameter": "%Inh", "result": "7%"}
{"compound": "CCCc1ccc(S(=O)(=O)NC2CCN(c3ccnc(Nc4ccc(F)cc4)n3)C2)cc1 (stereo not shown)", "parameter": "%Inh", "result": "10%"}
{"compound": "Nc1ncnc2[nH]c(-c3ccccc3)nc12", "parameter": "%Inh", "result": "0%"}

Value source: paper PMC5540273
